- Method notes: Cell viability used to select the allicin concentration
- Assay type: cell-based
- Experimental setup: dog, MDCK-chAbcb1 or MDCK-chAbcg2 cells
Value type: viability at 5 μM

Summary for this compound, C=CCS[S+]([O-])CC=C (stereo not shown) [allicin, Allicin] : viability at 5 μM is > 90%

---

- Tested on: chicken BCRP
- Method notes: Bidirectional transport experiment in MDCK-chAbcg2 cells
- Assay type: in vitro ADME
- Experimental setup: net efflux ratio (NER), florfenicol 20 μM, without allicin
Value type: efflux ratio at 20 μM

The measured efflux ratio at 20 μM associated with CS(=O)(=O)c1ccc([C@@H](O)[C@@H](CF)NC(=O)C(Cl)Cl)cc1 [florfenicol] reads > 2
